Listed here: molecules with reported IC50 for Wild-type human active MASTL (Homo sapiens (Human), UniProt Q96GX5).

Which IC50 is listed for CNc1nc(N[C@@H](c2ccn(C(F)F)n2)C(C)C)nc(-c2ccc3cnn(C)c3c2)n1 (single isomer, unassigned) [Example 29A] ?
1 to 500 nM

// same read-out, input: CNc1nc(N[C@H](c2ccn(C(F)F)n2)C(C)C)nc(-c2ccc3cnn(C)c3c2)n1 (single isomer, unassigned) [Example 29B]
> 1000 nM

// same read-out, input: CC[C@H](Nc1nc(N)nc(-c2ccc3cnc(C)n3c2)n1)c1ccc(F)nc1 (single isomer, unassigned) [Example 141B]
500 to 1000 nM

// same read-out, input: Cc1ncc2ccc(-c3nc(N)nc(N[C@@H](c4ccc(F)cn4)C(C)C)n3)cn12 (single isomer, unassigned) [Example 136A]
1 to 500 nM

// same read-out, input: Cc1ncc2ccc(-c3nc(N)nc(NC[C@H](O)c4cccc(Cl)c4Cl)n3)cn12 (single isomer, unassigned) [Example 146A]
1 to 500 nM

// same read-out, input: CNc1nc(NC[C@H](O)c2cccc(Cl)c2Cl)cc(-c2ccc3cnc(C)n3c2)n1 (single isomer, unassigned) [Example 143A]
1 to 500 nM

// same read-out, input: CC[C@@H](Nc1nc(N)nc(-c2ccc3cnc(C)n3c2)n1)c1ccc(F)nc1 (single isomer, unassigned) [Example 141A]
500 to 1000 nM

// same read-out, input: Cc1nc([C@H](Nc2nc(N)nc(-c3ccc4cnc(C)n4c3)n2)C(C)C)c[nH]1 (single isomer, unassigned) [Example 155A]
500 to 1000 nM

// same read-out, input: CC(C)C(Nc1nc(N)nc(-c2ccc3c(cnn3C)c2)n1)c1ccn(C(F)F)n1 (single isomer, unassigned) [Example 47A]
1 to 500 nM

// same read-out, input: Cc1nc([C@@H](Nc2nc(N)nc(-c3ccc4cnc(C)n4c3)n2)C(C)C)c[nH]1 (single isomer, unassigned) [Example 155B]
1 to 500 nM

// same read-out, input: Cc1ncc2ccc(-c3nc(N)nc(N[C@H](CC4CC4)c4c[nH]c(C(F)(F)F)n4)n3)cn12 (single isomer, unassigned)
1 to 500 nM

// same read-out, input: Cc1ncc2ccc(-c3nc(N)nc(N[C@@H](c4c[nH]c(C(F)(F)F)n4)C(C)C)n3)cn12 (single isomer, unassigned) [Example 142A]
1 to 500 nM

// same read-out, input: Cc1ncc2ccc(-c3nc(N)nc(NC[C@@H](O)c4cccc(Cl)c4Cl)n3)cn12 (single isomer, unassigned) [Example 146B]
1 to 500 nM
